B1: LINE1-full (parent)
chain: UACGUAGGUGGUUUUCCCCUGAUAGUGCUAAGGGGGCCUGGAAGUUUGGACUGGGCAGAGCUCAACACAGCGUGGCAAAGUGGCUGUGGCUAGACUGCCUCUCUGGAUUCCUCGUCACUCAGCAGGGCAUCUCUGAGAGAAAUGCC

Variants of: B1
Assay: self-cleavage, relative activity (ratio to wild type); higher = more cleavage; in vitro, sequencing; the parent is a self-cleaving ribozyme
Mark condition met for reported self-cleavage of 1 or greater; mark condition not met for anything smaller.

Use these answered entries as a reference point.
[[record]]
mutant_label = "U15C A77U"
group_label = "condition met"

[[record]]
mutant_label = "A78U U87G"
group_label = "condition not met"

[[record]]
mutant_label = "U81C U108C"
group_label = "condition met"


Prompt line: Reported self-cleavage reaches at least 1 for G32A U104A ?
Response line: condition met

Prompt line: Reported self-cleavage reaches at least 1 for A31G U85A ?
Response line: condition not met

Prompt line: Reported self-cleavage reaches at least 1 for U96C A117U ?
Response line: condition not met

Prompt line: Reported self-cleavage reaches at least 1 for C37U U85A ?
Response line: condition not met

Prompt line: Reported self-cleavage reaches at least 1 for U29C C123U ?
Response line: condition met

Prompt line: Reported self-cleavage reaches at least 1 for G10A A43G ?
Response line: condition not met

Prompt line: Reported self-cleavage reaches at least 1 for A69G A129U ?
Response line: condition not met

Prompt line: Reported self-cleavage reaches at least 1 for U119C U134A ?
Response line: condition met

Prompt line: Reported self-cleavage reaches at least 1 for A24C G114A ?
Response line: condition not met

Prompt line: Reported self-cleavage reaches at least 1 for U45C A59C ?
Response line: condition not met

Prompt line: Reported self-cleavage reaches at least 1 for A78G A136U ?
Response line: condition met

Prompt line: Reported self-cleavage reaches at least 1 for A117C A142G ?
Response line: condition met

Prompt line: Reported self-cleavage reaches at least 1 for A69G U102C ?
Response line: condition not met

Prompt line: Reported self-cleavage reaches at least 1 for U45A C95U ?
Response line: condition not met

Prompt line: Reported self-cleavage reaches at least 1 for U20A A124G ?
Response line: condition not met

Prompt line: Reported self-cleavage reaches at least 1 for G114A A129G ?
Response line: condition met

Prompt line: Reported self-cleavage reaches at least 1 for U23A U52C ?
Response line: condition not met

Prompt line: Reported self-cleavage reaches at least 1 for G53A A67G ?
Response line: condition not met

Prompt line: Reported self-cleavage reaches at least 1 for U29C A59G ?
Response line: condition not met

Prompt line: Reported self-cleavage reaches at least 1 for U39A A121G ?
Response line: condition met

Prompt line: Reported self-cleavage reaches at least 1 for C37U G53A ?
Response line: condition met

Prompt line: Reported self-cleavage reaches at least 1 for U26A G33A ?
Response line: condition not met

Prompt line: Reported self-cleavage reaches at least 1 for U5A G44A ?
Response line: condition not met

Prompt line: Reported self-cleavage reaches at least 1 for U115G A140G ?
Response line: condition met

Prompt line: Reported self-cleavage reaches at least 1 for A43G A136U ?
Response line: condition met
